Reference source for all entries: patent US20200247889A1

SYSTEM: T1, mouse TREM1 (mouse, UniProt Q9JKE2 21-230)
T1 chain: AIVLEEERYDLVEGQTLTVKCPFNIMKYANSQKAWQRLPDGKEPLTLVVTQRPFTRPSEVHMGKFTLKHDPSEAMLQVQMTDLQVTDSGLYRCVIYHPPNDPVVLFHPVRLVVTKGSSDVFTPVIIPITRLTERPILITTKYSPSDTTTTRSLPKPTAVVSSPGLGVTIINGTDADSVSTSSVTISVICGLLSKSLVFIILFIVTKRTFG
TEST_DETAILS: SPR (Biacore); avid
pKd: −log10 of the molar value.
PROPERTY_MEASURED: pKd

>>> test_value("Pi-9772 (antibody, V domains shown) VH: EVQLVESGGGLVQPGGSLRLSCAASGFDLSYSSMHWVRQAPGKGLEWVAYISPYSGYTSYADSVKGRFTISADTSKNTAYLQMNSLRAEDTAVYYCARHGSWSYGFSSGFDYWGQGTLVTVSS VL: DIQMTQSPSSLSASVGDRVTITCRASQSVSSAVAWYQQKPGKAPKLLIYSASSLYSGVPSRFSGSRSGTDFTLTISSLQPEDFATYYCQQYAYYYPITFGQGTKVEIKR")
9.82
>>> test_value("Pi-9067L (antibody, V domains shown) VH: EVQLVESGGGLVQPGGSLRLSCAASGFDIYSYSIHWVRQAPGKGLEWVAYIYPSYGYTSYADSVKGRFTISADTSKNTAYLQMNSLRAEDTAVYYCARGAVAALDYWGQGTLVTVSS VL: DIQMTQSPSSLSASVGDRVTITCRASQSVSSAVAWYQQKPGKAPKLLIYSASSLYSGVPSRFSGSRSGTDFTLTISSLQPEDFATYYCQQYGVSGYSLITFGQGTKVEIKR")
10.05
>>> test_value("afucosylated Pi-4928 (antibody, V domains shown, afucosylated Fc glycan) VH: QVQLKESGPGLVQPSQTLSLTCTVSGFSITSSNVYWFRQPPGKGLEWMGNIWGDGSTDYNSSLKSRLTLSRDTSKNQVFLKINSLQSEDTATYFCTRSWEYYFDHWGQGVVVTVSS VL: DIVLTQSPALAVSPGQRATLSCRASQSVTLSNVNLMNWYQQKPGQQPKLLIYHASNLASGIPTRFSGSGSGTDFTLTIDPVQADDIAAYYCQQSGESPRTFGGGTKVELKR")
9.96
>>> test_value("afucosylated Pi-9067L (antibody, V domains shown, afucosylated Fc glycan) VH: EVQLVESGGGLVQPGGSLRLSCAASGFDIYSYSIHWVRQAPGKGLEWVAYIYPSYGYTSYADSVKGRFTISADTSKNTAYLQMNSLRAEDTAVYYCARGAVAALDYWGQGTLVTVSS VL: DIQMTQSPSSLSASVGDRVTITCRASQSVSSAVAWYQQKPGKAPKLLIYSASSLYSGVPSRFSGSRSGTDFTLTISSLQPEDFATYYCQQYGVSGYSLITFGQGTKVEIKR")
9.82
>>> test_value("Pi-4928 (antibody, V domains shown) VH: QVQLKESGPGLVQPSQTLSLTCTVSGFSITSSNVYWFRQPPGKGLEWMGNIWGDGSTDYNSSLKSRLTLSRDTSKNQVFLKINSLQSEDTATYFCTRSWEYYFDHWGQGVVVTVSS VL: DIVLTQSPALAVSPGQRATLSCRASQSVTLSNVNLMNWYQQKPGQQPKLLIYHASNLASGIPTRFSGSGSGTDFTLTIDPVQADDIAAYYCQQSGESPRTFGGGTKVELKR")
9.96
>>> test_value("afucosylated Pi-9772 (antibody, V domains shown, afucosylated Fc glycan) VH: EVQLVESGGGLVQPGGSLRLSCAASGFDLSYSSMHWVRQAPGKGLEWVAYISPYSGYTSYADSVKGRFTISADTSKNTAYLQMNSLRAEDTAVYYCARHGSWSYGFSSGFDYWGQGTLVTVSS VL: DIQMTQSPSSLSASVGDRVTITCRASQSVSSAVAWYQQKPGKAPKLLIYSASSLYSGVPSRFSGSRSGTDFTLTISSLQPEDFATYYCQQYAYYYPITFGQGTKVEIKR")
9.15
